Attribute: phosphorylation enrichment
Tested on: AncSZ
Test Protocol: phosphorylation enrichment, bacterial display (enrichment ratio); higher = better substrate or ligand; peptides without Tyr show the background;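 note: 11-residue human phosphosite peptides and single-mutation variants displayed on the E. coli surface, counted by deep sequencing, each peptide's frequency after selection divided by its frequency in the unselected input library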;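 note: frequency after pTyr selection over input frequency; kinase dosed for 20-30% of maximal phosphorylation in three min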

Sequence: DTQNSYGCATS [TSC1_Y304]
phosphorylation enrichment: 0.7
--
Sequence: HDRGNYVQLNM [RECQL4_Y353_R355Q]
phosphorylation enrichment: 0.744
--
Sequence: EWLRRYLKNGK [HLA-C_Y195_E197K]
phosphorylation enrichment: 0.68
--
Sequence: RAILDYIASKF [GSTA3_Y74_N73D_YF]
phosphorylation enrichment: 0.674
--
Sequence: LKKLEYLNLPL [LRRC6_Y70_A74P]
phosphorylation enrichment: 0.818
--
Sequence: EEKSCYILHSS [PATJ_Y783_E780K]
phosphorylation enrichment: 1.08
--
Sequence: LEAFQYIGESQ [MSH2_Y856_E853A]
phosphorylation enrichment: 1.21

###

Target Desc: Jak2 (UniProt O60674)
Sequence (O60674 whole entry, looked up): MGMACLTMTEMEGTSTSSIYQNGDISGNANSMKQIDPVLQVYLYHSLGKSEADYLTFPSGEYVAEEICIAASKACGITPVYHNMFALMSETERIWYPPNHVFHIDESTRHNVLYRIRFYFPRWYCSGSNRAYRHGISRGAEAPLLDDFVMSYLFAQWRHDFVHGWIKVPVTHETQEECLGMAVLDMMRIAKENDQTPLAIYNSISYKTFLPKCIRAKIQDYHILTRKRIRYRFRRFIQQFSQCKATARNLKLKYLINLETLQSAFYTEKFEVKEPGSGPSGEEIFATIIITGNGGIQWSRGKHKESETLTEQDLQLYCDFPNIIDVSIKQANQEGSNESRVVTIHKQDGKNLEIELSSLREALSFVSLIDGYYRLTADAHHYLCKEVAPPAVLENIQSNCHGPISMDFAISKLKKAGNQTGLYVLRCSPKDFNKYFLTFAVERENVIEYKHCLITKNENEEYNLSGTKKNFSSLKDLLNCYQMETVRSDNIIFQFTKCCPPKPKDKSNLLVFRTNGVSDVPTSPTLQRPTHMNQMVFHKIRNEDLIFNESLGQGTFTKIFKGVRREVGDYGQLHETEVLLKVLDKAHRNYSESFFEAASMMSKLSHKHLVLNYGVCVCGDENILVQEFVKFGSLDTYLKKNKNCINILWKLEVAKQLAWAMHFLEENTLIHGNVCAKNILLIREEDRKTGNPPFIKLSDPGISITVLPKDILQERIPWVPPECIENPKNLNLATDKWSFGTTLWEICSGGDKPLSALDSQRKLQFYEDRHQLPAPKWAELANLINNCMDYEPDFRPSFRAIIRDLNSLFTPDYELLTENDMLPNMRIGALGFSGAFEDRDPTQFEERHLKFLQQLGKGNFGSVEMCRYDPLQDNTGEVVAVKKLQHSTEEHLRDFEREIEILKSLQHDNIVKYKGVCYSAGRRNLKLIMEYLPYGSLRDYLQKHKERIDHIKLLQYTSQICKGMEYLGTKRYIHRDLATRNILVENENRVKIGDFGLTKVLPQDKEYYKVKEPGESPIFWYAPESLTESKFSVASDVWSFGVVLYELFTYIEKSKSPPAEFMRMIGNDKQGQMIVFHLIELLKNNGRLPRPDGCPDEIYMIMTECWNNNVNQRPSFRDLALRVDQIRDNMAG
Test Protocol: phosphorylation enrichment, bacterial display (enrichment ratio); higher = better substrate or ligand; peptides without Tyr show the background
Measured phosphorylation enrichment determines class: A = under 0.7, B = from 0.7 up to 1, C = 1 and over

Sequence: KLSFSYGRALQ [ALDOB_Y302]
Target Desc: Jak2 (UniProt O60674)
Cat: B
--
Sequence: LKSEMYQKLLK [RGS13_Y146]
Target Desc: Jak2 (UniProt O60674)
Cat: B
--
Sequence: NSNAAYEESHF [LRIF1_Y714_Q716E]
Target Desc: Jak2 (UniProt O60674)
Cat: B
--
Sequence: QPDLLYDHIQP [TRRAP_Y862_F860L]
Target Desc: Jak2 (UniProt O60674)
Cat: C
--
Sequence: QMRLKYSQSDL [SMC1A_Y714]
Target Desc: Jak2 (UniProt O60674)
Cat: A
--
Sequence: ANNPLYKEATS [ITGB3_Y773]
Target Desc: Jak2 (UniProt O60674)
Cat: A
--
Sequence: RGMVMYTSKDR [ZG16B_Y136]
Target Desc: Jak2 (UniProt O60674)
Cat: B
--
Sequence: CTTIYYNYMCN [TP53_Y234_H233Y]
Target Desc: Jak2 (UniProt O60674)
Cat: C
--
Sequence: DGTVHYVDEKG [IFT140_Y216]
Target Desc: Jak2 (UniProt O60674)
Cat: B
--
Sequence: NDDDVYRSLEE [VAV2_Y142]
Target Desc: Jak2 (UniProt O60674)
Cat: C
--
Sequence: VRTGIYHGREP [PIK3CA_Y361_G364R]
Target Desc: Jak2 (UniProt O60674)
Cat: A
--
Sequence: PADSGYPAFLG [ATP6V1A_Y374_YF]
Target Desc: Jak2 (UniProt O60674)
Cat: C
--
Sequence: MKKMHYVDPDR [ST3GAL5_Y99_H104R]
Target Desc: Jak2 (UniProt O60674)
Cat: A
--
Sequence: KRISCYEASFQ [PFKFB3_Y194_YF]
Target Desc: Jak2 (UniProt O60674)
Cat: C
--
Sequence: VGRVGYVSGWG [HP_Y280]
Target Desc: Jak2 (UniProt O60674)
Cat: B
--
Sequence: RRGLLYDSDEE [MCM2_Y137]
Target Desc: Jak2 (UniProt O60674)
Cat: B
--
Sequence: REVKAYGAGLL [TH_Y419_G414R]
Target Desc: Jak2 (UniProt O60674)
Cat: A
--
Sequence: NVADHYGVFKP [ATP6V0D2_Y271_YF]
Target Desc: Jak2 (UniProt O60674)
Cat: A
--
Sequence: FKGKNYKPLDL [RPL35_Y78_K77N_YF]
Target Desc: Jak2 (UniProt O60674)
Cat: A
--
Sequence: WAFNLYDINKY [KCNIP3_Y174_D179Y]
Target Desc: Jak2 (UniProt O60674)
Cat: B
--
Sequence: EFENSYIFDIN [GAB1_Y83]
Target Desc: Jak2 (UniProt O60674)
Cat: C
--
Sequence: MCDSHYLESRF [CLK1_Y56_S61F]
Target Desc: Jak2 (UniProt O60674)
Cat: B
--
Sequence: LEAVSYSSPFA [RNLS_Y190_R193P_YF]
Target Desc: Jak2 (UniProt O60674)
Cat: B
--
Sequence: MDNQEYKDAYT [BRDT_Y331_K336T]
Target Desc: Jak2 (UniProt O60674)
Cat: C
--
Sequence: QNTGDYFDLFG [PTPN11_Y62_YF]
Target Desc: Jak2 (UniProt O60674)
Cat: C
--
Sequence: SVTCTYCPALN [TP53_Y126_S127C]
Target Desc: Jak2 (UniProt O60674)
Cat: A
--
Sequence: RNFDTYTAGLS [RHBDD1_Y264_YF]
Target Desc: Jak2 (UniProt O60674)
Cat: A
--
Sequence: TEQDPYNSIVR [MMUT_Y364_N366S]
Target Desc: Jak2 (UniProt O60674)
Cat: B
--
Sequence: SKAFAYVHFDS [PABPC5_Y149_G146A_YF]
Target Desc: Jak2 (UniProt O60674)
Cat: C
--
Sequence: IKELTYQTEED [MYH7_Y1852]
Target Desc: Jak2 (UniProt O60674)
Cat: C
--
Sequence: WNDPDYMDSRR [GAA_Y407_L405P]
Target Desc: Jak2 (UniProt O60674)
Cat: B
--
Sequence: MACDRYVAICS [OR8D4_Y123]
Target Desc: Jak2 (UniProt O60674)
Cat: B
--
Sequence: GDFFCYLAEVA [YWHAG_Y133_R132C_YF]
Target Desc: Jak2 (UniProt O60674)
Cat: C
--
Sequence: RVNSAYQDKVS [ACAN_Y100]
Target Desc: Jak2 (UniProt O60674)
Cat: C
--
Sequence: WQQQSYLGSGI [CTNNB1_Y30_D32G]
Target Desc: Jak2 (UniProt O60674)
Cat: A
--
Sequence: GITTGYLVLKE [DNMT3B_Y588_A585T]
Target Desc: Jak2 (UniProt O60674)
Cat: A
--
Sequence: ASKEPYYVHCI [MYO1D_Y585_R588H]
Target Desc: Jak2 (UniProt O60674)
Cat: B
--
Sequence: FTYDPYSEEEP [IL2RB_Y387_D391E]
Target Desc: Jak2 (UniProt O60674)
Cat: C
--
Sequence: DDHFTYSRFPW [LY75_Y888_YF]
Target Desc: Jak2 (UniProt O60674)
Cat: C
--
Sequence: IPPRRYFCSGV [STAMBP_Y36_R38C]
Target Desc: Jak2 (UniProt O60674)
Cat: A
--
Sequence: SSVPDYLAAVD [GLB1_Y154_D151V]
Target Desc: Jak2 (UniProt O60674)
Cat: C
--
Sequence: TNDRLYLRSLE [MTM1_Y71_Y68D]
Target Desc: Jak2 (UniProt O60674)
Cat: B
--
Sequence: VHLYAYDWISI [BEST1_Y227_G222V]
Target Desc: Jak2 (UniProt O60674)
Cat: C
--
Sequence: YAREGYSALPQ [SARS2_Y52]
Target Desc: Jak2 (UniProt O60674)
Cat: B
--
Sequence: ARTNEYKIIRS [INA_Y87_T92S]
Target Desc: Jak2 (UniProt O60674)
Cat: A
--
Sequence: PQGVGYPPQPQ [EP300_Y2219_Q2223P]
Target Desc: Jak2 (UniProt O60674)
Cat: B
--
Sequence: TLSGIYQYNIA [FOXL2_Y81_I84N]
Target Desc: Jak2 (UniProt O60674)
Cat: B
--
Sequence: RSRSPYSPVFR [CDK13_Y399_L403F]
Target Desc: Jak2 (UniProt O60674)
Cat: B
--
Sequence: EDEGLYMVRVP [MYOM3_Y343]
Target Desc: Jak2 (UniProt O60674)
Cat: C
--
Sequence: AFAEVYEGQVS [ALK_Y1131_G1128A]
Target Desc: Jak2 (UniProt O60674)
Cat: C
--
Sequence: FRIGPYQPSVP [MATR3_Y784_N787S_YF]
Target Desc: Jak2 (UniProt O60674)
Cat: A
--
Sequence: NDHHFYLEGTL [ALDOB_Y223_V222F]
Target Desc: Jak2 (UniProt O60674)
Cat: B
--
Sequence: SVVVPYEPLEV [TP53_Y220_P223L]
Target Desc: Jak2 (UniProt O60674)
Cat: B
--
Sequence: DRLASYLDKAR [KRT14_Y129_V133A]
Target Desc: Jak2 (UniProt O60674)
Cat: A
